The origin of these recorded values is the supplement of paper PMC5908809.

# System: normal primary NK cells, pool 3 (3 donors) (IL-2 2.5 ng/mL)
# method: drug sensitivity score (DSS) (DSS units); higher = more sensitive; extreme values may be limits of the assay
# measurementContext: 72 h

# compound, drug sensitivity score
measured = [
    ("CC(=O)O[C@@]12CO[C@@H]1C[C@H](O)[C@@]1(C)C(=O)[C@H](O)C3=C(C)[C@@H](OC(=O)[C@H](O)[C@@H](NC(=O)OC(C)(C)C)c4ccccc4)C[C@@](O)([C@@H](OC(=O)c4ccccc4)[C@H]21)C3(C)C [Docetaxel] (max concentration tested 1000 nM)", 1.58),
    ("COCC[n+]1c2c(n(Cc3cnccn3)c1C)C(=O)c1ccccc1C2=O [YM155] (max concentration tested 10000 nM)", 8.63),
    ("C=CC(=O)N1CCC[C@@H](n2nc(-c3ccc(Oc4ccccc4)cc3)c3c(N)ncnc32)C1 [Ibrutinib] (max concentration tested 1000 nM)", 0),
    ("C[C@@H](Nc1cc(F)cc(F)c1)c1cc(C(=O)N(C)C)cc2c(=O)cc(N3CCOCC3)oc12 [AZD-8186] (max concentration tested 1000 nM)", 0),
    ("C[C@@H](Oc1cc(-n2cnc3ccc(CN4CCN(C)CC4)cc32)sc1C(N)=O)c1ccccc1C(F)(F)F (max concentration tested 10000 nM)", 7.17),
]

---

Below: a set of entries, each annotated with reported percent inhibition of viability.
# Test system: NK-YS (IL-2 2.5 ng/mL)
# method: percent inhibition of viability; higher = more inhibition
# measurementContext: 72 h; 10 nM

# compound, uom, percent inhibition of viability
rows = [
    ("CC1(C)CNc2cc(NC(=O)c3cccnc3NCc3ccncc3)ccc21 [Motesanib] (max concentration tested 10000 nM)", "%", -3.14),
    ("Cn1cc(-c2ccc3nnc(C(F)(F)c4ccc5ncccc5c4)n3n2)cn1 (max concentration tested 10000 nM)", "%", -2.18),
    ("Cc1cc(C)c(/C=C2\\C(=O)Nc3ccccc32)[nH]1 [Semaxanib] (max concentration tested 10000 nM)", "%", 2.71),
    ("Nc1nc2[nH]cnc2c(=S)[nH]1 [Thioguanine] (max concentration tested 10000 nM)", "%", -5.53),
]

---

# Tested on: normal NK cells expanded with K562-aAPC
# method: percent inhibition of viability; higher = more inhibition
# measurementContext: 72 h; IL-2 2.5 ng/mL; 100 nM
propertyName: percent inhibition of viability (%)

# molecule, experimentalTarget, experimentalResult
rows = [
    ("CC(=O)O[C@@]12CO[C@@H]1C[C@H](O)[C@@]1(C)C(=O)[C@H](O)C3=C(C)[C@@H](OC(=O)[C@H](O)[C@@H](NC(=O)OC(C)(C)C)c4ccccc4)C[C@@](O)([C@@H](OC(=O)c4ccccc4)[C@H]21)C3(C)C [Docetaxel] (max concentration tested 1000 nM)", "normal NK cells expanded with K562-aAPC", 62.4),
    ("O=C(O)CCCCC(CCSCc1ccccc1)SCc1ccccc1 (stereo unspecified) [CPI-613] (max concentration tested 10000 nM)", "normal NK cells expanded with K562-aAPC", -4.94),
    ("Nc1ccn([C@@H]2O[C@H](CO)[C@@H](O)[C@@H]2O)c(=O)n1 [Cytarabine] (max concentration tested 10000 nM)", "normal NK cells expanded with K562-aAPC", 28.7),
    ("COc1cc2nccc(Oc3ccc(NC(=O)Nc4cc(C)on4)c(Cl)c3)c2cc1OC [Tivozanib] (max concentration tested 10000 nM)", "normal NK cells expanded with K562-aAPC", -0.12),
    ("CCCC(CCC)C(=O)O [Valproic acid] (max concentration tested 1000000 nM)", "normal NK cells expanded with K562-aAPC", -5.06),
    ("Nc1nc2[nH]cnc2c(=S)[nH]1 [Thioguanine] (max concentration tested 10000 nM)", "normal NK cells expanded with K562-aAPC", -5.79),
]

---

# Test system: NK-92 (IL-2 2.5 ng/mL)
# method: relative IC50 (inflection point of fitted viability curve, relative to fitted max inhibition); higher = less sensitive
# measurementContext: 72 h

# compound, censoringSign, relative IC50 [nM]
data = [
    ("COCC[n+]1c2c(n(Cc3cnccn3)c1C)C(=O)c1ccccc1C2=O", "=", 17.8),
    ("O=c1[nH]cc(F)c(=O)[nH]1", "=", 526),
    ("Cc1cnc(Nc2ccc(OCCN3CCCC3)cc2)nc1Nc1cccc(S(=O)(=O)NC(C)(C)C)c1", "=", 1330),
    ("CC(=O)Nc1cccc(-n2c(=O)n(C3CC3)c(=O)c3c(Nc4ccc(I)cc4F)n(C)c(=O)c(C)c32)c1", ">", 250),
    ("CS(=O)(=O)OCCCCOS(C)(=O)=O", "=", 36400),
    ("c1ccc2c(CCNc3ccc(Nc4ccncc4)cc3)c[nH]c2c1", "=", 1790),
    ("Cc1cc(C)c(CNC(=O)c2cc(-c3ccc(CN4CCOCC4)cc3)cc3c2cnn3C2CCCC2)c(=O)[nH]1", ">", 10000),
    ("CCn1c(=O)c(-c2cc[nH]n2)cc2c(C)nc(N)nc21", "=", 685),
    ("N#CC[C@H](C1CCCC1)n1cc(-c2ncnc3[nH]ccc23)cn1", "=", 55.7),
]

---

# System: DERL-7 (IL-2 2.5 ng/mL)
# method: percent inhibition of viability; higher = more inhibition
# measurementContext: 72 h; 1 nM
propertyName: percent inhibition of viability

# compound, propertyName, experimentalResult
records = [
    ("C=C1C[C@@H]2[C@H](CC[C@]3(C)C(=O)CC[C@@H]23)[C@@]2(C)C=CC(=O)C=C12 [Exemestane] (max concentration tested 10000 nM)", "percent inhibition of viability", "-0.04%"),
    ("O=C(Nc1cccc(Nc2ncc(Br)c(NCCc3cnc[nH]3)n2)c1)N1CCCC1 [BX-912] (max concentration tested 10000 nM)", "percent inhibition of viability", "2.87%"),
    ("Nc1ncn([C@@H]2O[C@H](CO)[C@@H](O)[C@H]2O)c(=O)n1 [Azacitidine] (max concentration tested 10000 nM)", "percent inhibition of viability", "2.03%"),
    ("CCCS(=O)(=O)Nc1ccc(F)c(C(=O)c2c[nH]c3ncc(-c4ccc(Cl)cc4)cc23)c1F [Vemurafenib] (max concentration tested 10000 nM)", "percent inhibition of viability", "3.23%"),
    ("COCC(=O)NC/C=C/c1ccc2ncnc(Nc3ccc(Oc4ccc(C)nc4)c(C)c3)c2c1 (max concentration tested 10000 nM)", "percent inhibition of viability", "-3.08%"),
    ("CC(C)(C)c1cnc(CSc2cnc(NC(=O)C3CCNCC3)s2)o1 [SNS-032] (max concentration tested 10000 nM)", "percent inhibition of viability", "0.08%"),
]

---

# Test system: DERL-7 (IL-2 2.5 ng/mL)
# method: percent inhibition of viability; higher = more inhibition
# measurementContext: 72 h; 100 nM

# molecule, experimentalTarget, percent inhibition of viability, %
rows = [
    ("CC(C)C[C@H](NC(=O)[C@H](Cc1ccccc1)NC(=O)c1cnccn1)B(O)O [Bortezomib] (max concentration tested 1000 nM)", "DERL-7 (IL-2 2.5 ng/mL)", 101),
    ("COCC[n+]1c2c(n(Cc3cnccn3)c1C)C(=O)c1ccccc1C2=O [YM155] (max concentration tested 10000 nM)", "DERL-7 (IL-2 2.5 ng/mL)", 100),
    ("CC[C@@H]1C(=O)N(C)c2cnc(Nc3ccc(C(=O)NC4CCN(C)CC4)cc3OC)nc2N1C1CCCC1 [BI 2536] (max concentration tested 1000 nM)", "DERL-7 (IL-2 2.5 ng/mL)", 99.1),
    ("C=CC(=O)N1CCC[C@@H](n2nc(-c3ccc(Oc4ccccc4)cc3)c3c(N)ncnc32)C1 [Ibrutinib] (max concentration tested 1000 nM)", "DERL-7 (IL-2 2.5 ng/mL)", 7.83),
    ("Nc1ccn([C@@H]2O[C@H](CO)[C@@H](O)[C@@H]2O)c(=O)n1 [Cytarabine] (max concentration tested 10000 nM)", "DERL-7 (IL-2 2.5 ng/mL)", 88.8),
    ("Nc1ncn([C@H]2C[C@H](O)[C@@H](CO)O2)c(=O)n1 [Decitabine] (max concentration tested 10000 nM)", "DERL-7 (IL-2 2.5 ng/mL)", 21.1),
]

---

# Tested on: normal primary NK cells, pool 1 (3 donors), resting (IL-2 0 ng/mL)
# method: percent inhibition of viability; higher = more inhibition
# measurementContext: 72 h; 100 nM
propertyName: percent inhibition of viability (%)

# molecule, uom, experimentalResult
records = [
    ("CC[C@H](Nc1ncnc2[nH]cnc12)c1nc2cccc(F)c2c(=O)n1-c1ccccc1 [Idelalisib] (max concentration tested 10000 nM)", "%", 10.3),
    ("CN(C)C1CCN(C(=O)c2ccc(NC(=O)Nc3ccc(-c4nc(N5CCOCC5)nc(N5CCOCC5)n4)cc3)cc2)CC1 [Gedatolisib] (max concentration tested 1000 nM)", "%", -12.4),
    ("C[C@@H](Oc1cc(-n2cnc3ccc(CN4CCN(C)CC4)cc32)sc1C(N)=O)c1ccccc1C(F)(F)F (max concentration tested 10000 nM)", "%", 22.1),
]
